# Tested on: PfIESI-1 RRM domain (Plasmodium falciparum ortholog aa 875-1232, GST fusion)
# PROCEDURE_TEXT: RBNS R-value (6-mer enrichment in protein-bound RNA vs input library) (ratio); higher = stronger binding preference
# CONDITION: protein concentration: 250 nM
The full ranking holds about 4,100 sequences; the median of “RBNS R-value (6-mer enrichment in protein-bound RNA vs input library)” is about 0.99, and the highest 2% start at about 1.4. Only a selection was taken, and the highest values are over-represented in it overall.
Classification field: met = RBNS R-value at or over 1; not met = RBNS R-value under 1.

Q. Can ACGGGA be said to have RBNS R-value at or above 1?
A. met

Q. // same read-out, input: GAGAGA
A. met

Q. Moving on to the next sequence: GAUUGU
A. met

Q. Same thing, different sequence: GUGAUU
A. met

Q. Cool, now GAUUGG
A. met

Q. Field entry: CUGAUU
A. met

Q. Again, but for GAUACG
A. met

Q. What about this sequence? AAUCAA
A. not met

Q. Can you check UGAUUU next?
A. met

Q. Let us now turn to AGAUUU
A. met

Q. Also need UUGAUU , thanks.
A. met

Q. Moving on to GAUGAC
A. met

Q. Similarly, GCCGAG ?
A. met

Q. Then what about the sequence CCGAGA ?
A. met

Q. What about this sequence? UGGAUU
A. not met

Q. Another: AUGUGA
A. met

Q. Lookup CUCAAC
A. not met

Q. Can you handle UGAGUG next?
A. met

Q. What about ACACCU ?
A. met

Q. Another: UAUGAC
A. not met

Q. Lookup GCCAAA
A. met

Q. Now consider ACCGAA and answer again.
A. met

Q. Can you handle UUUAAG next?
A. not met

Q. Also, CCGGGU please.
A. met

Q. Param item: CCCGGC
A. met

Q. Record: GAUUGC
A. met

Q. Another: CCCGAG
A. met

Q. And then GCGAUU , what is it?
A. met

====

I'd appreciate it if you could supply RBNS R-value values for the items below.
# Test system: PfIESI-1 RRM domain (Plasmodium falciparum ortholog aa 875-1232, GST fusion)
# PROCEDURE_TEXT: RBNS R-value (6-mer enrichment in protein-bound RNA vs input library) (ratio); higher = stronger binding preference
# CONDITION: protein concentration: 250 nM
Whole data set: some 4,100 sequences, median “RBNS R-value (6-mer enrichment in protein-bound RNA vs input library)” near 0.99, cut for the highest 2% near 1.4. Shown is part of a subset that was picked to be rich in the highest values.

Q. Would you mind telling me what RBNS R-value value was observed for UCUGAU ?
A. 1.88

Q. Next up: AUUCUG
A. 1.19

Q. How about this sequence: CCUCCG
A. 1.07

Q. Also GAAUGA ?
A. 1.47

Q. Input ACUGAG
A. 1.08

Q. Quick one: GGCACC
A. 1.38

Q. What about this sequence? GCUGAC
A. 1.07

Q. Same read-out for GAGAAC ?
A. 1.24

Q. Okay, and UGUAAU ?
A. 0.85

Q. Can you check AAUGAU next?
A. 2.28

Q. Likewise for CAUUCG ?
A. 1.02

Q. Note, next up: CUCUCU
A. 0.881

Q. Same for AAUUCC
A. 1.16

Q. Moving on to the next sequence: ACUGAC
A. 1.04

Q. Please do the same for GAAUGU as well.
A. 0.918

Q. Next sequence up: GAGAAG
A. 1.33

Q. Next entry: GGGGUG
A. 1.1

Q. Try GACACU next.
A. 1.2

Q. Cool, now UAUGAU
A. 1.95

Q. Lookup GCACGG
A. 1.02

Q. Please do the same for AAUUCA as well.
A. 0.972

Q. Field entry: CCCAGG
A. 1.27

Q. Then what about the sequence AAUUCG ?
A. 0.99

Q. Follow-up entry: UAUUCA
A. 0.803

Q. Please do the same for CCCAGU as well.
A. 1.09

Q. Also AUUCCA ?
A. 1.24

Q. Can you handle GAUUCC next?
A. 1.51

Q. Query GAUAAC next
A. 1.16

Q. Another sequence to check: GAGAAU
A. 1.43

Q. Also, ACAUGA please.
A. 1.25

Q. Same lookup for UCUGCG , please.
A. 0.996

Q. Next entry: GACACC
A. 1.56

Q. Would you mind doing CAGUCU as well?
A. 0.933

Q. Lookup CAAUGA
A. 1.34

Q. How about GGCACA ?
A. 1.05

Q. GAUUCU , same question.
A. 1.53

Q. Entry CUCGUG please
A. 0.979

Q. Consider next the sequence AAUUCU in the same way.
A. 1.01

Q. Follow-up entry: CCUGCG
A. 1.1

Q. Next sequence: CAGAAU
A. 1.12

Q. Would you kindly repeat that for ACUGAU ?
A. 1.89

====

# Test system: PfIESI-1 RRM domain (Plasmodium falciparum ortholog aa 875-1232, GST fusion)
# PROCEDURE_TEXT: RBNS R-value (6-mer enrichment in protein-bound RNA vs input library) (ratio); higher = stronger binding preference
# CONDITION: protein concentration: 250 nM
The full ranking holds about 4,100 sequences; the median of “RBNS R-value (6-mer enrichment in protein-bound RNA vs input library)” is about 0.99, and the highest 2% start at about 1.4. This is one part of a sample in which the highest values are shown more often than they occur.
Decide by RBNS R-value: equal to or exceeding 0.9 means 1, less means 0.

Q. Does the reported RBNS R-value for CAUGUU fall at or above the 0.9 mark?
A. 0

Q. Repeat with AGUCAA
A. 0

Q. Then this sequence: GAUGUU
A. 1

Q. Moving on to the next sequence: GCCUGC
A. 1

Q. Same read-out for GCCUGA ?
A. 1

Q. Next sequence up: UAUGUG
A. 0

====

# Test system: PfIESI-1 RRM domain (Plasmodium falciparum ortholog aa 875-1232, GST fusion)
# PROCEDURE_TEXT: RBNS R-value (6-mer enrichment in protein-bound RNA vs input library) (ratio); higher = stronger binding preference
# CONDITION: protein concentration: 250 nM
In all, about 4,100 sequences were measured (“RBNS R-value (6-mer enrichment in protein-bound RNA vs input library)”: median about 0.99, highest 2% from about 1.4 on). This excerpt belongs to a sample that is enriched for the highest values.
PROPERTY_NAME: RBNS R-value
Give the figure only, with no unit attached.

Q. May I ask what RBNS R-value has been recorded for GCACGA ?
A. 1.08

Q. Now consider AUUUGU and answer again.
A. 0.92

Q. Again, but for ACGAGU
A. 1.04

Q. Record: UGGAGC
A. 1.03

Q. Next entry: CGAUAA
A. 0.968

Q. Another sequence to check: CUUAGC
A. 0.907

Q. Another sequence to check: GGCAUU
A. 1.01

====

# System: PfIESI-1 RRM domain (Plasmodium falciparum ortholog aa 875-1232, GST fusion)
# PROCEDURE_TEXT: RBNS R-value (6-mer enrichment in protein-bound RNA vs input library) (ratio); higher = stronger binding preference; the methods of the paper give 50 / 100 / 500 nM protein instead
# CONDITION: protein concentration: 500 nM
Over roughly 4,100 sequences, “RBNS R-value (6-mer enrichment in protein-bound RNA vs input library)” has its median near 0.99; the highest 2% begin near 1.4. What follows is part of a selection rich in the highest values, with near analogues and random picks from the rest.
PROPERTY_NAME: RBNS R-value
Form rule: numeric answer, no unit written next to it.

Q. If you can, please state the reported RBNS R-value value of GAUGCA .
A. 1.42

Q. Note, next up: UGCUAC
A. 0.87

Q. Field entry: CAUGCC
A. 0.974

Q. Thanks! And GAUGCG ?
A. 1.42

Q. Now give it for CAUCUC too.
A. 0.891

Q. Same thing, different sequence: GGAUCC
A. 0.978

Q. Could you do the same for UCCGUC , please?
A. 0.878

Q. What about UUGGGU ?
A. 0.933

Q. Also need AGGCGG , thanks.
A. 0.987

Q. Ok, now CUUAGC
A. 0.84

Q. Also check AACCAA
A. 1.04

Q. What do you have for GUGAGA ?
A. 1.08

Q. Item: GAAUGA
A. 1.55

Q. Same question, ACGCCU this time
A. 0.995

Q. Continue with AUACUA
A. 0.825

Q. Try this sequence too: UUAUCG
A. 0.76

Q. What about this sequence? CUUUAU
A. 0.733

Q. Let us now turn to UUGAGU
A. 1.04

Q. Also, AGAUUC please.
A. 1.22

Q. Same question for UUGACU please.
A. 1.06

Q. Likewise for CCUGAA ?
A. 1.17

Q. # repeat for CGAUUG
A. 1.27

Q. Check GCCUCA too.
A. 0.946

Q. Then AAAUGA ?
A. 1.6

Q. Now give it for AGAUUA too.
A. 1.04

Q. Repeat with GGAUUG
A. 1.02

Q. Repeat with CUGAUU
A. 2.66

Q. Same question, GAAUGC this time
A. 1.07

Q. Moving on to the next sequence: CUUUUU
A. 0.932

Q. What about UGAUCC ?
A. 1.38

Q. Now consider CAAUGC .
A. 0.936

Q. And GCCCCU ?
A. 0.964

Q. Please give the result for CAAUGA too.
A. 1.41

Q. Please give the result for GUGAUU too.
A. 2.01

Q. Could you do the same for CCUCUA , please?
A. 0.783

Q. Further, for CAUGCA ?
A. 0.914

Q. Consider next the sequence UAAUGA in the same way.
A. 1.2

Q. And the next one, UCAUAC ?
A. 0.758

Q. Another sequence: GUGAAA
A. 1.12

Q. And UGAUUG ?
A. 2.42

Q. Further, for UUGAUU ?
A. 2.96

Q. Lookup UCGGCU
A. 0.885

Q. Query CGAUUA next
A. 1.11
